Where do the numbers come from? From the domain aggregation screens of Martell et al. (2025).

# maps each entry to its soluble fraction (log2)
- test: soluble fraction after stress (log2 fold change); higher = more stays soluble; pooled small domains, quantitative proteomics
- condition notes: stress: pH 4

Previously resolved entries follow.
sequence entry | data value
HMTEEDVVIFSGLSDRDLKMVQTELANSGIKYTLPTSGTVSVPNSEIARAQMVLAMAGIPRS | -0.0859
HMGLKDTEVYMPDVRGLIEEEAQTKLKASFLTMKVSYTSSDEVKKGYVISQAPSADSVVLKGASVTVIVS | 0.112
HMTTAGTAIVQTGNSGKLNLREQAYANAGILGRYSNGTAVTVLQKGAAWSYVEVKGQKGYMMSKFLKFTS | -0.341
HMTTYTGVVTGSGVNVRSGAGTSYPVVGSKTMGDVVTITETVSADGMIWGKIDIGWISMNYVRM | -0.434
HMKIAEALNLRGDADSYERQEAIWLLEHIVGMSALELKYRGEQDLTEDQLQQYRSGLQRLEQGEPLAYVIG | -0.73

// query I would be grateful if you could share the reported soluble fraction (log2) for HMGPPAVGAKLQVLRQARKLSLDELSRRAGVSKSMLSQVERNLANPTVAVLWRLATALGVGLADFLSP .
// result -0.524

// query What value of measured soluble fraction (log2) is listed for HMVTIEEMMDRLLTRVQRAVNMSFSEFSGEAKEKVEVIVSFLALLELVKQGAVDVLQHENFSDIRIENT ?
// result -0.841

// query Give its soluble fraction (log2) value. Item: HMQYQIITENGKQYYLYTVQKSEGFYSIGKRFEITNDEIIKANPEAALGLKLGQVLKIPVYK
// result -0.131
